Listing of recorded polymerase ribozyme fitness (log ratio) by entry.
B1: TPR 5TU (parent)
chain: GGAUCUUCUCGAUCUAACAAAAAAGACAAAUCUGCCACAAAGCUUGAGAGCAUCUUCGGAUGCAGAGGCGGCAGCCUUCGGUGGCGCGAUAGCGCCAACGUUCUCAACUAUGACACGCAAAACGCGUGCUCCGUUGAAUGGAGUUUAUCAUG

- Variants of: B1
- Assay name: polymerase ribozyme fitness, log enrichment relative to wild type (log ratio); higher = more active; in vitro selection for triplet polymerase activity
Fewer inactive variants are shown than the library holds.
Give only the figure.

Look over these answered cases.
GET /value?item= C54A A91G &field=polymerase ribozyme fitness (log ratio) returns -3.97

Lab book: polymerase ribozyme fitness (log ratio) of "C129A" noted as -2.46

// field: polymerase ribozyme fitness (log ratio); key: C18G U31A A120G G128U A137G ; value = -4.17

polymerase ribozyme fitness (log ratio) for G11A G48C G92U is -0.981

Record C75U C93U G143U . Reported polymerase ribozyme fitness (log ratio): -3.61

Continuing:
Briefly, polymerase ribozyme fitness (log ratio) measured for A47U U55A A89G A120U U144G : -0.697

So, A3U A17C G94C ? Its polymerase ribozyme fitness (log ratio) was -0.825

Record A12U C93U , field polymerase ribozyme fitness (log ratio): -1.13

Lab note: measured polymerase ribozyme fitness (log ratio) of C85U U135G G141A was -3.54

Kindly note the recorded polymerase ribozyme fitness (log ratio) for A12U C18G G92C , which is -2.01

# polymerase ribozyme fitness (log ratio) (variant: U56A A60G C125G ) is -0.563

polymerase ribozyme fitness (log ratio) recorded for this variant, "A115C" , is -0.641

response.value for C5G A20C G48C U56A G62A (field: polymerase ribozyme fitness (log ratio)) = -4.11

The variant identified as C5G G83A registered its polymerase ribozyme fitness (log ratio) at -1.24

Entry under test: U7G G48C G84A . Its polymerase ribozyme fitness (log ratio) was -3.94

Summary for this variant, C10U U53A : polymerase ribozyme fitness (log ratio) is -2.96

polymerase ribozyme fitness (log ratio) reading for A20C G62A G86U : -2.06

The variant listed as C76U C99A has a reported polymerase ribozyme fitness (log ratio) of -1.37

Noted for C99G G126U : its polymerase ribozyme fitness (log ratio) reads -0.93

What the record says about A12G A20U A29U U53G A66C : polymerase ribozyme fitness (log ratio) is -4.16

Please fill in: polymerase ribozyme fitness (log ratio) reported for G128U U144C = -3.96

Looking up C38U U61C U145A , I see its polymerase ribozyme fitness (log ratio) listed as -2.49

polymerase ribozyme fitness (log ratio) reported for this variant "C129U" : -0.0537

Input U6C U61A C85U A97C A120G . Output polymerase ribozyme fitness (log ratio): -3.12
